Target: NK-1 receptor (Homo sapiens, UniProt P25103)
Sequence (P25103 whole entry): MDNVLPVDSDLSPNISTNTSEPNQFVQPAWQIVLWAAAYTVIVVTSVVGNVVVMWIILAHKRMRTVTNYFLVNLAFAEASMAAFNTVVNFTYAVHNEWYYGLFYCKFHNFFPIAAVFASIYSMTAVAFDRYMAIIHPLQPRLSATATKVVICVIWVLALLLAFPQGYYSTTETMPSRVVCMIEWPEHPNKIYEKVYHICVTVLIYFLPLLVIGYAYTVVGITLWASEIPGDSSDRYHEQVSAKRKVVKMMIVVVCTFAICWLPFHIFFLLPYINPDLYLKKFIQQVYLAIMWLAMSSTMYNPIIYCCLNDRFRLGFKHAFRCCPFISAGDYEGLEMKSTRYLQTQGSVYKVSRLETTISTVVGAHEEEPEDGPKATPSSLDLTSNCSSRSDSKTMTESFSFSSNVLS
Assay: NK-1 receptor-binding test ([3H]-Substance P, hNK1-CHO cells)
Set-up: expressed in transfected cells; host or cells: CHO-K1 cells (ATCC: CCL-61), G418-resistant, hNK1-CHO
pIC50: −log10 of the molar value. Where a name gives a salt, the structure may show the parent alone.
Recorded measurements of pIC50, one per entry
PROPERTY_LABEL: pIC50

>>> measured_result("CN(C[C@](CCCN1CCC2(CC1)c1ccccc1C[S@+]2[O-])(c1ccc(Cl)c(Cl)c1)N(C)C(=O)Oc1ccccc1F)C(=O)CC(F)(F)F [Compound No. 638, hydrochloride]")
8.22
>>> measured_result("CN(C[C@](CCCN1CCC2(CC1)c1ccccc1C[S@+]2[O-])(c1ccc(Cl)c(Cl)c1)N(C)C(=O)Oc1cccc(Cl)c1Cl)C(=O)CC(F)(F)F [Compound No. 653, hydrochloride]")
8.80
>>> measured_result("COc1cc(C(=O)N(C)C[C@](CCCN2CCC3(CC2)c2ccccc2C[S@+]3[O-])(c2ccc(Cl)c(Cl)c2)N(C)C(=O)Oc2ccccc2)cc(OC)c1OC [Compound No. 589, hydrochloride]")
9.28
>>> measured_result("CN(C[C@](CCCN1CCC2(CC1)c1ccccc1C[S@+]2[O-])(c1ccc(Cl)c(Cl)c1)N(C)C(=O)Oc1ccccc1)C(=O)CC(F)(F)F [Compound No. 591, hydrochloride]")
8.16
>>> measured_result("COc1ccc(OC(=O)N(C)[C@](CCCN2CCC3(CC2)c2ccccc2C[S@+]3[O-])(CN(C)C(=O)CC(F)(F)F)c2ccc(Cl)c(Cl)c2)cc1 [Compound No. 640, hydrochloride]")
8.22
>>> measured_result("CN(C[C@](CCCN1CCC(C(N)=O)(c2ccccc2)CC1)(c1ccc(Cl)c(Cl)c1)N(C)C(=O)Oc1ccccc1)C(=O)C(F)(F)F [Compound No. 578, hydrochloride]")
8.02
>>> measured_result("CN(C[C@](CCCN1CCC2(CC1)c1ccccc1C[S@+]2[O-])(c1ccc(Cl)c(Cl)c1)N(C)C(=O)Oc1ccc(F)c(F)c1)C(=O)CC(F)(F)F [compound 655, hydrochloride]")
8.89
>>> measured_result("Cc1ccc(OC(=O)N(C)[C@](CCCN2CCC3(CC2)c2ccccc2C[S@+]3[O-])(CN(C)C(=O)CC(F)(F)F)c2ccc(Cl)c(Cl)c2)cc1 [Compound No. 652, hydrochloride]")
8.57
>>> measured_result("COc1ccccc1OC(=O)N(C)[C@](CCCN1CCC2(CC1)c1ccccc1C[S@+]2[O-])(CN(C)C(=O)CC(F)(F)F)c1ccc(Cl)c(Cl)c1 [Compound No. 636, hydrochloride]")
9.05
>>> measured_result("COc1cccc(OC(=O)N(C)[C@](CCCN2CCC3(CC2)c2ccccc2C[S@+]3[O-])(CN(C)C(=O)CC(F)(F)F)c2ccc(Cl)c(Cl)c2)c1 [Compound No. 637, hydrochloride]")
8.77

###

Recorded measurements of IC50, one per entry
Biological target: NK-1 receptor (Homo sapiens, UniProt P25103)
Experiment: NK-1 receptor-binding test ([3H]-Substance P, hNK1-CHO cells)
Parameters: expressed in transfected cells; host or cells: CHO-K1 cells (ATCC: CCL-61), G418-resistant, hNK1-CHO
Settings: Table 2; inhibition of [3H]-Substance P (0.5 nM) binding to hNK1-CHO cells, pseudo-Hill analysis; read-out: NK-1
Structures can show the parent of a compound that is named as a salt.
PROPERTY_LABEL: IC50

>>> measured_result("COc1cc(COC[C@](CCCN2CCC3(CC2)c2ccccc2C[S@+]3[O-])(c2ccc(Cl)c(Cl)c2)N(C)C(=O)Nc2cccc(C(F)(F)F)c2)cc(OC)c1OC [Compound No. 616, hydrochloride]")
"2 nM"
>>> measured_result("COc1cc(COC[C@](CCCN2CCC3(CC2)c2ccccc2C[S@+]3[O-])(c2ccc(Cl)c(Cl)c2)N(C)C(=O)NCc2ccc(F)cc2)cc(OC)c1OC [Compound No. 621, hydrochloride]")
"0.94 nM"
>>> measured_result("COc1cc(C(=O)N(C)CC(CCN2CCC(C(N)=O)(c3ccccc3)CC2)(c2ccc(Cl)c(Cl)c2)N(C)C(=O)Oc2ccccc2)cc(OC)c1OC (racemic) [Compound No. 16, hydrochloride]")
"3.5 nM"
